- experimental.system: Sphingosine 1-phosphate receptor 5 (Homo sapiens)
- Sequence (Q9H228 whole entry): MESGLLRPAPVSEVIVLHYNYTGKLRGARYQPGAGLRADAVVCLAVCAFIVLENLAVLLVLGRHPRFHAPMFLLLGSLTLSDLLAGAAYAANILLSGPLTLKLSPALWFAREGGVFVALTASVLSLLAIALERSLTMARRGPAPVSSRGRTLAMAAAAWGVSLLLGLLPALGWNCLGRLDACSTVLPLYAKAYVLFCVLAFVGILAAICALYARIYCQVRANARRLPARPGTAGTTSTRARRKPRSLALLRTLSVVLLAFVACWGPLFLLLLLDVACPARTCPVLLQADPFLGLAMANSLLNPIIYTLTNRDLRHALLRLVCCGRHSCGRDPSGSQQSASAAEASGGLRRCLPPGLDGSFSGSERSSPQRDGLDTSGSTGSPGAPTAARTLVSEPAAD
- experimental.protocol: Activity at human recombinant S1P5 receptor expressed in CHO cells assessed as increase in calcium release by FLIPR assay
Each entry below carries its recorded pEC50.
Scale explanation: pEC50 corresponds to minus log10 of a concentration expressed in moles per litre.

// solved cases for pEC50 follow
CCCCCCCCc1ccc([C@H]2C[C@H](COP(=O)(O)O)N[C@@H]2CO)cc1 = 7.99
CCCCCCCCc1ccc([C@H]2C[C@H](CO)N[C@@H]2COP(=O)(O)O)cc1 = 6.87
CCCCCCCCc1ccc([C@@H]2C[C@@H](COP(=O)(O)O)N[C@H]2CO)cc1 = 8.24

Now examine the next entry.
Report pEC50 for `CCCCCCCCc1ccc([C@@H]2C[C@@H](CO)N[C@H]2COP(=O)(O)O)cc1` please. 7.67

====

Each record here notes measured EC50.
- experimental.system: Sphingosine 1-phosphate receptor 1 (Homo sapiens)
- Sequence (P21453 whole entry): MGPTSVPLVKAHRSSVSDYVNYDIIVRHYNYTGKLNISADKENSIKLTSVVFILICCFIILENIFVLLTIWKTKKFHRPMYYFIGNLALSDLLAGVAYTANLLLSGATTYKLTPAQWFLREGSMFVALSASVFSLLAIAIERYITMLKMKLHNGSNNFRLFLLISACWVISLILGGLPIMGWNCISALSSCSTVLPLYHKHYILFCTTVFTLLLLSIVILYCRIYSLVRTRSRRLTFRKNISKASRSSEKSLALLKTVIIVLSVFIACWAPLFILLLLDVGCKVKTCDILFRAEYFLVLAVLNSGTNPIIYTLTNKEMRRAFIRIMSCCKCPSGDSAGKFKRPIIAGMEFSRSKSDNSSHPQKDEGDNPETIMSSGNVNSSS
- experimental.protocol: Activity at human recombinant S1P1 receptor expressed in CHO cells assessed as increase in calcium release by FLIPR assay

A selection of reference data follows.
CCCCCCCCc1ccc([C@@H]2C[C@@H](CO)N[C@H]2COP(=O)(O)O)cc1 = > 1000 nM
CCCCCCCCCCCCC/C=C/[C@@H](O)[C@@H](N)COP(=O)(O)O = 0.55 nM

Recorded EC50 of `CCCCCCCCc1ccc([C@H]2C[C@H](CO)N[C@@H]2COP(=O)(O)O)cc1` , please. > 1000 nM

Which EC50 reading was recorded for the molecule `CCCCCCCCc1ccc([C@@H]2C[C@@H](COP(=O)(O)O)N[C@H]2CO)cc1` ? > 1000 nM

Need EC50 of `CCCCCCCCc1ccc([C@H]2C[C@H](COP(=O)(O)O)N[C@@H]2CO)cc1` , thanks. > 1000 nM

====

- experimental.system: Sphingosine 1-phosphate receptor 3 (Homo sapiens)
- experimental.protocol: Activity at human recombinant S1P3 receptor expressed in CHO cells assessed as increase in calcium release by FLIPR assay
pEC50: −log10 of the molar value.
// values below are reported pEC50

CCCCCCCCc1ccc([C@H]2C[C@H](COP(=O)(O)O)N[C@@H]2CO)cc1 = < 6.00

Which pEC50 reading was recorded for the compound `CCCCCCCCCCCCC/C=C/[C@@H](O)[C@@H](N)COP(=O)(O)O` ? 8.80

====

- experimental.system: Sphingosine 1-phosphate receptor 3 (Homo sapiens, UniProt Q99500)
- Sequence (Q99500 whole entry): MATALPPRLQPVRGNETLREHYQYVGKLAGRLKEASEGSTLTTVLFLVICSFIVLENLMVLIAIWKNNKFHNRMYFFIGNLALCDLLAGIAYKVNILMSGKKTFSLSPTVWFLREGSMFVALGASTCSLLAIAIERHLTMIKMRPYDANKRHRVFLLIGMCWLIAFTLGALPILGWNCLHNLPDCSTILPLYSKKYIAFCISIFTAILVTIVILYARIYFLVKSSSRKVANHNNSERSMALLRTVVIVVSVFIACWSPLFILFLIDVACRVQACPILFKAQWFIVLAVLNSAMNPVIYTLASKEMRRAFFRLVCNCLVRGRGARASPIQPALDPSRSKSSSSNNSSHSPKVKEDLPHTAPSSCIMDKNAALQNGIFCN
- experimental.protocol: Activity at human recombinant S1P3 receptor expressed in CHO cells assessed as increase in calcium release by FLIPR assay
pEC50: −log10 of the molar value.
readout.type: pEC50

Some solved entries appear below for comparison.
CCCCCCCCc1ccc([C@@H]2C[C@@H](CO)N[C@H]2COP(=O)(O)O)cc1 = < 6.00
CCCCCCCCc1ccc([C@@H]2C[C@@H](COP(=O)(O)O)N[C@H]2CO)cc1 = < 6.00

Alright, here's another compound for you.
Sphingosine 1-phosphate receptor 3 (Homo sapiens, UniProt Q99500) / pEC50 / `CCCCCCCCc1ccc([C@H]2C[C@H](CO)N[C@@H]2COP(=O)(O)O)cc1` : value? < 6.00
